System: MDA-MB-231
measurement notes: Antiproliferative activity against human MDA-MB-231 cells assessed as cell growth at 1 uM incubated for 3 days by 3H-thymidine incorporation assay relative to control
Format: functional
test parameters: read-out: Activity
We'd kindly ask you to apply these growth at 1 µM classes: bucket A: < 10%; bucket B: ≥ 10% and < 90%; bucket C: ≥ 90%

smiles code	group label
Cc1cccc(NC(=O)c2sc3nc4c(cc3c2N)CCCCCC4)c1C	bucket A
Cc1ccc2nc3sc(C(=O)Nc4cccc(F)c4)cc3cc2c1	bucket C
COc1ccc2nc3sc(C(=O)Nc4cc(Cl)ccc4OC)c(N)c3cc2c1	bucket B

[in] # bin lookup: classify Cc1ccccc1NC(=O)c1sc2nc3c(cc2c1N)CCCC3 by its growth at 1 µM
[out] bucket B

[in] What do you get for Cc1c(Br)cccc1NC(=O)c1sc2nc3c(cc2c1N)CCCCC3 ?
[out] bucket B

[in] // same read-out, input: Cc1cccc(NC(=O)c2sc3nc4c(cc3c2N)CCCC4)c1C
[out] bucket A

[in] Try Cc1c(Cl)cccc1NC(=O)c1sc2nc3c(cc2c1N)CCCCC3 next.
[out] bucket B

[in] And for Nc1c(C(=O)Nc2ccc(Cl)cc2)sc2nc3c(cc12)CCCCCC3 ?
[out] bucket C

[in] Please do the same for COc1ccc(NC(=O)c2sc3nc4c(cc3c2N)CCCCCC4)cc1 as well.
[out] bucket C

---

Tested on: MDA-MB-231
measurement notes: Antiproliferative activity against human MDA-MB-231 cells assessed as cell growth at 1 uM incubated for 3 days by 3H-thymidine incorporation assay relative to control
Assay type: functional
test parameters: read-out: Activity
# growth at 1 µM listing for each entry below
Only the number, expressed in %, is required.

[in] Give growth at 1 µM (MDA-MB-231) of the following compound: Nc1c(C(=O)Nc2ccccc2Cl)sc2nc3c(cc12)CCCCC3
[out] 89

[in] Cool, now Nc1c(C(=O)Nc2cc(C(F)(F)F)ccc2Cl)sc2nc3c(cc12)CCCCC3
[out] 105

[in] Input CCc1cccc(NC(=O)c2sc3nc4c(cc3c2N)CC(CC)CC4)c1 (stereo unspecified)
[out] 73

---

measurement notes: Antiproliferative activity against human HCT116 cells assessed as cell growth at 1 uM incubated for 3 days by 3H-thymidine incorporation assay relative to control
Assay type: functional
test parameters: HCT-116, read-out: Activity
assay readout: growth at 1 µM (%)
State the answer as a number, implicitly in %.

The examples below pair each entry with its known result.
smiles code	measurement
COc1ccc2nc3sc(C(=O)Nc4cc(Cl)ccc4OC)c(N)c3cc2c1	100
Nc1c(C(=O)Nc2ccccc2)sc2nc3c(cc12)CCC3	94
Cc1c(Cl)cccc1NC(=O)c1sc2nc3c(cc2c1N)CCC3	3
Nc1c(C(=O)Nc2cccc(Cl)c2)sc2nc3c(cc12)CCC3	87
COc1ccc(NC(=O)c2sc3nc4ccccc4cc3c2N)cc1	97
Cc1c(Br)cccc1NC(=O)c1sc2nc3c(cc2c1N)CCC3	5
Nc1c(C(=O)Nc2ccccc2Cl)sc2nc3c(cc12)CCCCC3	92
Cc1c(Br)cccc1NC(=O)c1sc2nc3c(cc2c1N)CCCC3	5

[in] Sample Cc1c(Cl)cccc1NC(=O)c1sc2nc3c(cc2c1N)CCCCC3 — what was its growth at 1 µM?
[out] 10

[in] And the next one, Nc1c(C(=O)Nc2ccc3ccccc3c2)sc2nc3c(cc12)CCCCC3 ?
[out] 103

[in] Another molecule to look at: Cc1c(Cl)cccc1NC(=O)c1sc2nc3c(cc2c1N)CCCC3
[out] 3

---

growth at 1 µM listing for selected compounds.
Tested on: MDA-MB-231
measurement notes: Antiproliferative activity against human MDA-MB-231 cells assessed as cell growth at 1 uM incubated for 3 days by 3H-thymidine incorporation assay relative to control
Type: functional
test parameters: read-out: Activity
Lab book: enter the figure in %, no units written.

Sample records with growth at 1 µM:
smiles code	tgt	assay readout	measurement
CCc1ccccc1NC(=O)c1sc2nc3c(cc2c1N)CCCC3	MDA-MB-231	growth at 1 µM	89
Cc1cc(C)c(NC(=O)c2sc3nc4c(cc3c2N)CCCC4)c(C)c1	MDA-MB-231	growth at 1 µM	97

[in] Can you share its growth at 1 µM? I mean this compound: Nc1c(C(=O)Nc2ccc(Cl)c(Cl)c2)sc2nc3c(cc12)CCCCC3
[out] 115

[in] Next compound: Cc1ccc2cc3cc(C(=O)Nc4cnc5ccccc5c4)sc3nc2c1
[out] 97

[in] What do you get for Nc1c(C(=O)Nc2ccccc2)sc2nc3c(cc12)CCCC3 ?
[out] 22

[in] Note, next up: Nc1c(C(=O)Nc2cccc(F)c2)sc2nc3c(cc12)CCCC3
[out] 30

[in] Next compound up: Cc1cc(C)c(NC(=O)c2sc3nc4c(cc3c2N)CCCCC4)c(C)c1
[out] 98

[in] Next: Nc1c(C(=O)Nc2ccc3ccccc3c2)sc2nc3c(cc12)CCC3
[out] 81

[in] Next record, please: Nc1c(C(=O)Nc2ccc3ccccc3c2)sc2nc3c(cc12)CCCC3
[out] 120

[in] Another: Nc1c(C(=O)Nc2ccccc2F)sc2nc3c(cc12)CCCCCC3
[out] 24

[in] Same again, this time with CCCCOc1cccc(NC(=O)c2sc3nc4c(cc3c2N)CCCCC4)c1
[out] 100

[in] Thanks! And Nc1c(C(=O)Nc2cccc(Br)c2)sc2nc3c(cc12)CCCCC3 ?
[out] 92

[in] Another compound: CC(=O)c1cccc(NC(=O)c2sc3nc4c(cc3c2N)CCCCCC4)c1
[out] 117

[in] Try the compound CCOc1ccc2nc3sc(C(=O)Nc4ccc(Cl)cc4)c(N)c3cc2c1
[out] 97

[in] Further, for CC(=O)c1ccc(NC(=O)c2sc3nc4ccccc4cc3c2N)cc1 ?
[out] 95

[in] Next: Nc1c(C(=O)Nc2cccc(Br)c2)sc2nc3c(cc12)CCC3
[out] 94

[in] Please give the result for Nc1c(C(=O)Nc2ccccc2)sc2nc3c(cc12)CCC3 too.
[out] 90

[in] Let us now turn to Nc1c(C(=O)Nc2ccccc2C(F)(F)F)sc2nc3c(cc12)CCCCC3
[out] 124

---

System: MDA-MB-468
measurement notes: Antiproliferative activity against human MDA-MB-468 cells assessed as cell growth at 1 uM incubated for 3 days by 3H-thymidine incorporation assay relative to control
Format: functional
test parameters: read-out: Activity
Readings of growth at 1 µM for the listed compounds
Answer with a number only, understood to be in %.

The cases that follow already have their growth at 1 µM on record.
smiles code	uom	growth at 1 µM
Nc1c(C(=O)Nc2cccc(C(F)(F)F)c2)sc2nc3c(cc12)CCC3	%	58
Cc1c(Cl)cccc1NC(=O)c1sc2nc3c(cc2c1N)CCCC3	%	6
COc1ccc2nc3sc(C(=O)Nc4cc(Cl)ccc4OC)c(N)c3cc2c1	%	104

[in] Data request, read-out growth at 1 µM, for COc1cccc(NC(=O)c2sc3nc4c(cc3c2N)CCCCC4)c1
[out] 3

[in] Could you do the same for Nc1c(C(=O)Nc2cccc(C(F)(F)F)c2)sc2nc3c(cc12)CCCCC3 , please?
[out] 92

[in] What would you report for COc1ccc(NC(=O)c2sc3nc4c(cc3c2N)CCCCCC4)c(OC)c1 ?
[out] 110

---

measurement notes: Antiproliferative activity against human HCT116 cells assessed as cell growth at 1 uM incubated for 3 days by 3H-thymidine incorporation assay relative to control
Assay type: functional
test parameters: HCT-116, read-out: Activity
Some compounds, each annotated with its measured growth at 1 µM.
Numeric answer only, unit % assumed.

smiles code	uom	growth at 1 µM
COc1ccc(OC)c(NC(=O)c2sc3nc4c(cc3c2N)CCCCC4)c1	%	98

[in] Given the compound COc1ccc(NC(=O)c2sc3nc4c(cc3c2N)CCCCCC4)c(OC)c1 , what is its reported growth at 1 µM?
[out] 109

[in] Cc1ccc(C)c(NC(=O)c2cc3cc4cc(C)ccc4nc3s2)c1 , same question.
[out] 98

[in] What would you report for Nc1c(C(=O)Nc2ccc(Cl)cc2)sc2nc3c(cc12)CCCCCC3 ?
[out] 94

[in] Do the same for Nc1c(C(=O)Nc2cccc([N+](=O)[O-])c2)sc2nc3c(cc12)CCC3 please
[out] 79

[in] Another compound to check: Nc1c(C(=O)Nc2c(Cl)cccc2Cl)sc2nc3c(cc12)CCCC3
[out] 100

---

measurement notes: Antiproliferative activity against human HCT116 cells assessed as cell growth at 1 uM incubated for 3 days by 3H-thymidine incorporation assay relative to control
Format: functional
test parameters: HCT-116, read-out: Activity
assay readout: growth at 1 µM (%)
Expressed in %, but write only the number.

Known results for molecules:
smiles code	growth at 1 µM, %
Nc1c(C(=O)Nc2cccc(F)c2)sc2nc3c(cc12)CCCC3	11
Cc1c(Br)cccc1NC(=O)c1sc2nc3c(cc2c1N)CCCCC3	8
Nc1c(C(=O)Nc2ccccc2Cl)sc2nc3c(c(C(F)(F)F)c12)CCCCCC3	112
Cc1cccc(NC(=O)c2sc3nc4c(cc3c2N)CCCC4)c1C	5
Nc1c(C(=O)Nc2cccc([N+](=O)[O-])c2)sc2nc3c(cc12)CCCCC3	51

[in] Which measured growth at 1 µM value corresponds to CC(=O)c1cccc(NC(=O)c2sc3nc4c(cc3c2N)CCCCCC4)c1 ?
[out] 85

[in] Next up: Nc1c(C(=O)Nc2ccc3ccccc3c2)sc2nc3c(cc12)CCCC3
[out] 100

[in] Also Nc1c(C(=O)Nc2ccc(F)cc2)sc2nc3c(cc12)CCCCCC3 , if possible.
[out] 82

[in] Field entry: Cc1cc(C)c(NC(=O)c2sc3nc4c(cc3c2N)CCCCC4)c(C)c1
[out] 99

[in] Please do the same for Nc1c(C(=O)Nc2ccc(Cl)c(Cl)c2)sc2nc3c(cc12)CCCCC3 as well.
[out] 103
